Field: folding enthalpy. Provide a value for each of the sequences that follow.
assay: folding enthalpy; higher = less favourable; fluorescence melt of hairpins on a sequencing array, two-state fit; conditions: sodium 0.088 M
Give bare numbers, in kcal/mol.

Worked examples, 4 sequences total:
[
  {
    "record.sequence": "GTGTGCGAAAGCATTCAC ((((((....)))..)))",
    "observed.value": -15.8
  },
  {
    "record.sequence": "GCGAACGGAAACGCTCAC (.((.((....)).)).)",
    "observed.value": -14.3
  },
  {
    "record.sequence": "GGATACGAAAGTATTTCC ((((((....)))..)))",
    "observed.value": -24.9
  },
  {
    "record.sequence": "CGGCTACGGAAACGTCCG (((..(((....))))))",
    "observed.value": -13.3
  }
]

Each of the following entries comes with a recorded value; kindly state folding enthalpy for each.
1. GCAACCGAAAGGTGGTGC ((((((....)))..)))
2. GCTAAGCGAAAGCTTTGC ((.((((....)))).))
3. GGATGCGAAAGCAGATCC ((((((....)))..)))

Result:
[-20.8, -30.6, -16.1]

Each sequence below has a recorded value; state its folding enthalpy.
1. GGTTAGGGAAACCTAACC (((((((....)))))))
2. GGAGTCACGAAAGTGTCC (((..(((....))))))
3. GCCCAGCGAAAGCTCTGC ((..(((....)))..))

Result:
1: -46.4; 2: -13.7; 3: -6.7

Give me folding enthalpy for each of these sequences, listed below.
1. GTTGCCGGAAACGGCAGC (.(((((....))))).)
2. GGTTGCCGAAAGGCCACC (((.(((....))).)))
3. GTACCACGAAAGTGTTAC (((.(((....))).)))
4. GTGTCGCGAAAGCGTCAC (((.(((....))).)))
5. GGATTTGGAAACAGATCC ((((.((....)).))))
6. GATCATCACGATGATC ((((((....))))))
7. GAAGGAGGAAACTCCTCC (.(((((....))))).)
8. GTAACCCGAAAGGGTAC (((.(((....))))))

Result:
1. -14.4
2. -26.6
3. -24.1
4. -31.9
5. -30.7
6. -42.6
7. -12.7
8. -12.5

====

assay: melting temperature; fluorescence melt of hairpins on a sequencing array, two-state fit, raised by 9.35 °C to match UV melts; conditions: sodium 0.088 M
I'd be grateful if you could share measured Tm for these entries.
Numbers only, in °C.

Would you mind giving Tm for every sequence in the list below?
1. GCGCGTACGAAAGTACGC (((..(((....))))))
2. GGATGCGGAAACGCGTCC (((.(((....))).)))

Result:
[63.2, 61.8]

Return reported Tm values for all items listed beneath this line.
1. GGATGTGGAAACGCATTC (.(((.(....).))).)
2. GCCTCGCGAAAGCGGAGC ((..(((....)))..))
3. GTGGTGTCGAAAGACCAC (((..(((....))))))
4. GATCTTACATAAGATC ((((((....))))))
5. GTGGCTGGAAACAACCAC ((((.((....)).))))
6. GATCTAACTATAGATC ((((((....))))))
7. GTCTGGGAAACCAGAC ((((((....))))))

Result:
1: 33.9; 2: 50.9; 3: 47.6; 4: 43.1; 5: 45.8; 6: 37.5; 7: 58.3

State the recorded Tm for every item in the following list.
1. GATCGATGGCTCGATC ((((((....))))))
2. GGTACCGAAAGGTTACC ((((((....))).)))
3. GATAAACCGAAAGGTATC (((..(((....))))))
4. GAATACGAAAGTAGATTC ((((((....)))..)))
5. GCGTATGGAAACATGCGC (((.(((....))).)))
6. GATCGACATCTCGATC ((((((....))))))

Result:
[50.2, 50, 30, 29.1, 57, 50.3]

====

assay: folding enthalpy; higher = less favourable; fluorescence melt of hairpins on a sequencing array, two-state fit; conditions: sodium 0.088 M
observation.type: folding enthalpy (kcal/mol)
One number for each entry, in kcal/mol.

[
  {
    "record.sequence": "GCAAGGCGAAAGCCCCGC ((..(((....)))..))",
    "observation.type": "folding enthalpy",
    "result.unit": "kcal/mol",
    "observed.value": -10.7
  },
  {
    "record.sequence": "GAAGTCCGAAAGGATTC (((.(((....))))))",
    "observation.type": "folding enthalpy",
    "result.unit": "kcal/mol",
    "observed.value": -14.1
  },
  {
    "record.sequence": "GTAGCTGGAAACGGTTAC (((.(.(....).).)))",
    "observation.type": "folding enthalpy",
    "result.unit": "kcal/mol",
    "observed.value": -18.7
  },
  {
    "record.sequence": "GGATGCGGAAACGCATTC (.(((((....))))).)",
    "observation.type": "folding enthalpy",
    "result.unit": "kcal/mol",
    "observed.value": -19.2
  },
  {
    "record.sequence": "GGTTGCGAAAGCATGACC ((((((....)))..)))",
    "observation.type": "folding enthalpy",
    "result.unit": "kcal/mol",
    "observed.value": -15.7
  }
]

Then this sequence:
Ask: What measured folding enthalpy goes with GTCATCACGAAAGTGGAC (((..(((....)))))) ?
Result: -12.7

====

For each record, write down the corresponding Tm.
assay: melting temperature; fluorescence melt of hairpins on a sequencing array, two-state fit, raised by 9.35 °C to match UV melts; details: sodium 0.088 M
Please give the number followed by its unit.

[
  {
    "record.sequence": "GTTGAGGGAAACTTCAAC (((((.(....).)))))",
    "Tm": "40.5 °C"
  }
]

Batch: Tm for all items listed.
1. GATCCGGGTTCGGATC ((((((....))))))
2. GCCGAGACGAAAGTCGGC (((..(((....))))))

Result:
58.5 °C
61.8 °C

Give me Tm for each of these sequences, listed below.
1. GGTACTCGAAAGAGGACC (((.(((....))).)))
2. GATCTCAGTTGAGATC ((((((....))))))
3. GTTGTGGGAAACCATAGC (.(.(((....))).).)
4. GGCTAGGGAAACCTGGCC (((.(((....))).)))
5. GCAAGCGAAAGCTCCTGC ((((((....)))..)))
6. GGATCCACGAAAGTGTCC (((..(((....))))))
7. CGCGCTCGGAAACGAGCG (((..(((....))))))
8. GATCCAGAGGTGGATC ((((((....))))))

Result:
["61.5 °C", "54.2 °C", "27.6 °C", "55.5 °C", "30.9 °C", "28.4 °C", "67.6 °C", "47.8 °C"]

Ask: # lookup: Tm of GCTTTAACGAAAGTTAGC (((..(((....))))))
Result: 31.9 °C

====

experiment: melting temperature; fluorescence melt of hairpins on a sequencing array, two-state fit, raised by 9.35 °C to match UV melts; conditions: sodium 0.088 M
Classify: class 1 when Tm is strictly less than 40 °C; class 0 when Tm is not.

[
  {
    "record.sequence": "GCCCAGCGAAAGCGCGGC (((..((....))..)))",
    "answer.label": "class 0"
  },
  {
    "record.sequence": "GATTTGGAAACAAATC ((((((....))))))",
    "answer.label": "class 0"
  },
  {
    "record.sequence": "GCTCATCGAAAGATTAGC (((.(((....))).)))",
    "answer.label": "class 0"
  },
  {
    "record.sequence": "GGTGGCGAAAGCCCACC ((((((....))).)))",
    "answer.label": "class 0"
  }
]

Ask: Strictly below 40 °C in Tm? GCTGAGCGAAAGCCCTGC ((.(.((....)).).))
Result: class 0

Ask: Check if Tm falls below 40 °C for CGTAGACGGAAACGTACG (((..(((....)))))) .
Result: class 1

Ask: Confirm or reject: Tm of GGCCCCGAAAGGGGAGCC ((((((....)))..))) lies strictly below 40 °C
Result: class 0

Ask: Dear reviewer, please state whether GGGTATGGAAACGTACTC (.(((.(....).))).) has Tm strictly beneath 40 °C.
Result: class 1

Each recorded value in this set is attributed to the array DNA melting data of Ke et al. (doi:10.1101/2024.01.08.574731).
